- test_description: In vitro anti-plasmodial activity against Plasmodium falciparum dihydrofolate reductase N51I/C59R/S108N (W2)
Kindly state IC50 for each of the entries shown.
Dear colleague, please return just the value in µM, with no unit written.

What the record says about Nc1nc(N)c(-c2cccc(Cl)c2)c(CCCOC(=O)c2ccccc2)n1 : IC50 is 2

What the record says about CCCCCCc1nc(N)nc(N)c1-c1ccccc1 : IC50 is 2.3

What the record says about NC1=NC(c2cccc(OCCCOc3cc(Cl)c(Cl)cc3Cl)c2)N(c2cccc(Cl)c2)C(N)=N1 (stereo not given) : IC50 is 3.2

What the record says about CCCC1(C)N=C(N)N=C(N)N1c1cccc(Cl)c1 (stereo not given) : IC50 is 0.28

What the record says about Nc1nc(N)c(-c2cccc(Cl)c2)c(CCCO)n1 : IC50 is 4.5

What the record says about NC1=NC(c2ccc(Oc3ccccc3)cc2)N(c2ccc(Cl)cc2)C(N)=N1 (stereo not given) : IC50 is 3.2

What the record says about NC1=NC(c2cccc(Oc3cccc(C(F)(F)F)c3)c2)N(c2cccc(Cl)c2)C(N)=N1 (stereo not given) : IC50 is 2.8

What the record says about CCCCCCC1(C)N=C(N)N=C(N)N1c1cccc(Cl)c1 (stereo not given) : IC50 is 0.51

What the record says about CCCCCCCC1N=C(N)N=C(N)N1c1cccc(Cl)c1 (stereo not given) : IC50 is 0.33

What the record says about CCCCCCC1(C)N=C(N)N=C(N)N1c1ccc(Cl)cc1 (stereo not given) : IC50 is 3.3

What the record says about NC1=NC(c2cccc(Oc3cc(Cl)cc(Cl)c3)c2)N(c2cccc(Cl)c2)C(N)=N1 (stereo not given) : IC50 is 3.4

What the record says about Nc1nc(N)c(-c2ccccc2)c(CCCc2ccccc2)n1 : IC50 is 2.7

What the record says about Nc1nc(N)c(-c2cccc(Cl)c2)c(CCCc2ccccc2)n1 : IC50 is 4.3

What the record says about NC1=NC(c2cccc(Oc3ccc(Cl)cc3)c2)N(c2cccc(Cl)c2)C(N)=N1 (stereo not given) : IC50 is 2

What the record says about NC1=NC(c2ccc(Oc3ccccc3)cc2)N(c2cccc(Cl)c2)C(N)=N1 (stereo not given) : IC50 is 0.74

What the record says about CCCOc1ccc(C2N=C(N)N=C(N)N2c2cccc(Cl)c2)cc1 (stereo not given) : IC50 is 0.38

What the record says about CC(=O)OCCCc1nc(N)nc(N)c1-c1cccc(Cl)c1 : IC50 is 2.1

What the record says about CC1(C)N=C(N)N=C(N)N1c1ccc(Cl)cc1 : IC50 is 5.8

What the record says about NC1=NC(c2ccccc2)N(c2cccc(Cl)c2)C(N)=N1 (stereo not given) : IC50 is 0.2

What the record says about Nc1nc(N)c(-c2cccc(Cl)c2)c(CCOCCCOc2ccccc2)n1 : IC50 is 4.5

What the record says about NC1=NC(c2cccc(OCc3ccccc3)c2)N(c2cccc(Cl)c2)C(N)=N1 (stereo not given) : IC50 is 3.3

What the record says about Nc1nc(N)c(-c2cccc(Cl)c2)c(CCCOC(=O)OCc2ccccc2)n1 : IC50 is 4.1

What the record says about NC1=NC(c2cccc(Oc3ccccc3)c2)N(c2cccc(Cl)c2)C(N)=N1 (stereo not given) : IC50 is 3.5

What the record says about CCc1nc(N)nc(N)c1-c1cccc(Cl)c1 : IC50 is 3.9

What the record says about COc1ccc(CCCc2nc(N)nc(N)c2-c2cccc(Cl)c2)cc1 : IC50 is 4

----------
- test_description: In vitro anti-plasmodial activity against Plasmodium falciparum dihydrofolate reductase […]/C59R/S108N/I164L (V1/S) mutant
Kindly state pIC50 for each of the entries shown.
Units for pIC50: none; it is -log10 of a concentration expressed in mol/L.

What the record says about CCc1nc(N)nc(N)c1-c1cccc(Cl)c1 : pIC50 is 5.04

What the record says about Nc1nc(N)c(-c2cccc(Cl)c2)c(CCCO)n1 : pIC50 is 5.21

What the record says about CCCCCCC1(C)N=C(N)N=C(N)N1c1ccc(Cl)cc1 (stereo unspecified) : pIC50 is 5.19

What the record says about Nc1nc(N)c(-c2ccccc2)c(CCCc2ccccc2)n1 : pIC50 is 5.07

What the record says about NC1=NC(c2ccc(Oc3ccccc3)cc2)N(c2cccc(Cl)c2)C(N)=N1 (stereo unspecified) : pIC50 is 5.48

What the record says about NC1=NC(c2cccc(Oc3ccccc3)c2)N(c2cccc(Cl)c2)C(N)=N1 (stereo unspecified) : pIC50 is 5.44

----------
- test_description: In vitro anti-plasmodial activity against Plasmodium falciparum dihydrofolate reductase wild type (TM4/8.2)
property_label: pIC50
Units for pIC50: none; it is -log10 of a concentration expressed in mol/L.

What the record says about CCCCCCc1nc(N)nc(N)c1-c1ccccc1 : pIC50 is 7.22

What the record says about Nc1nc(N)c(-c2cccc(Cl)c2)c(CCOCCCOc2ccccc2)n1 : pIC50 is 6.46

What the record says about Nc1nc(N)c(-c2cccc(Cl)c2)c(CCCO)n1 : pIC50 is 5.96

What the record says about COc1ccc(CCCc2nc(N)nc(N)c2-c2cccc(Cl)c2)cc1 : pIC50 is 6.39

----------
- test_system: Bifunctional dihydrofolate reductase-thymidylate synthase (Plasmodium falciparum (isolate K1 / Thailand), UniProt P13922)
- Sequence (P13922 whole entry): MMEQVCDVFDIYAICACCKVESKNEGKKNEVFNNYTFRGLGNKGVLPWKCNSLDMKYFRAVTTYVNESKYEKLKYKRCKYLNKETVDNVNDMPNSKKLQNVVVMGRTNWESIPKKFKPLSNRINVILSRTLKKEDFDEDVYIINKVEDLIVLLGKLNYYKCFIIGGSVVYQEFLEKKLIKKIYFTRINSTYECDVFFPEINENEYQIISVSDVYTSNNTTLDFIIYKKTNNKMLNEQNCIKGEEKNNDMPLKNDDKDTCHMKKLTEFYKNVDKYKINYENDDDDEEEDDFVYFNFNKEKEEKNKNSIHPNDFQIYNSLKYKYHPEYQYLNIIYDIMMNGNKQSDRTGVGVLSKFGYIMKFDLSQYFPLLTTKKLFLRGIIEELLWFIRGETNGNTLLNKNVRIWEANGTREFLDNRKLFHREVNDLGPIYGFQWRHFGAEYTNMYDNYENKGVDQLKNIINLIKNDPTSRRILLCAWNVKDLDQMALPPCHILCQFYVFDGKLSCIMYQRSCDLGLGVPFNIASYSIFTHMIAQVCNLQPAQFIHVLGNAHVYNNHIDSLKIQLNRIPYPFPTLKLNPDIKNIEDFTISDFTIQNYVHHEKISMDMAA
- test_description: Binding affinity towards wild-type dihydrofolate reductase of Plasmodium falciparum.
property_label: Ki (nM)
Dear colleague, please return just the value in nM, with no unit written.

What the record says about NC1=NC(c2cccc(Oc3ccccc3)c2)N(c2ccc(Cl)cc2)C(N)=N1 (centres undefined) : Ki is 0.5

What the record says about CCCCCCC1(C)N=C(N)N=C(N)N1c1cccc(Cl)c1 (centres undefined) : Ki is 2.4

What the record says about NC1=NC(c2ccc(Oc3ccccc3)cc2)N(c2ccc(Cl)cc2)C(N)=N1 (centres undefined) : Ki is 0.4

What the record says about NC1=NC(c2cccc(Oc3ccc(Cl)cc3)c2)N(c2ccc(Cl)cc2)C(N)=N1 (centres undefined) : Ki is 1.4

What the record says about Nc1nc(N)c(-c2cccc(Cl)c2)c(CCCOC(=O)OCc2ccccc2)n1 : Ki is 1.2

What the record says about NC1=NC(c2cccc(OCc3ccccc3)c2)N(c2cccc(Cl)c2)C(N)=N1 (centres undefined) : Ki is 2.3

What the record says about CCCC1(C)N=C(N)N=C(N)N1c1cccc(Cl)c1 (centres undefined) : Ki is 4.6

What the record says about CCCC1(C)N=C(N)N=C(N)N1c1ccc(Cl)cc1 (centres undefined) : Ki is 3.5

What the record says about CC(C)C1(C)N=C(N)N=C(N)N1c1ccc(Cl)cc1 (centres undefined) : Ki is 36.5

What the record says about Nc1nc(N)c(-c2cccc(Cl)c2)c(CCCOC(=O)c2ccccc2)n1 : Ki is 1.5

What the record says about NC1=NC(c2cccc(Oc3ccc(Cl)cc3)c2)N(c2cccc(Cl)c2)C(N)=N1 (centres undefined) : Ki is 1.3

What the record says about Nc1nc(N)c(-c2cccc(Cl)c2)c(CCCO)n1 : Ki is 9.2

What the record says about NC1=NC(c2cccc(Oc3ccccc3)c2)N(c2cccc(Cl)c2)C(N)=N1 (centres undefined) : Ki is 1.1

What the record says about Nc1nc(N)c(-c2ccccc2)c(CCCOC(=O)c2ccccc2)n1 : Ki is 3.4

----------
Kindly state pIC50 for each of the entries shown.
- test_description: In vitro anti-plasmodial activity against Plasmodium falciparum dihydrofolate reductase C59R+S108N/I164L (Csl-2) mutant
Units for pIC50: none; it is -log10 of a concentration expressed in mol/L.

What the record says about NC1=NC(c2ccc(Oc3ccccc3)cc2)N(c2cccc(Cl)c2)C(N)=N1 (stereo unspecified) : pIC50 is 5.48

What the record says about Nc1nc(N)c(-c2cccc(Cl)c2)c(CCCO)n1 : pIC50 is 5.72

What the record says about Nc1nc(N)c(-c2cccc(Cl)c2)c(CCCOC(=O)OCc2ccccc2)n1 : pIC50 is 5.72

What the record says about NC1=NC(c2cccc(OCCCOc3cc(Cl)c(Cl)cc3Cl)c2)N(c2cccc(Cl)c2)C(N)=N1 (stereo unspecified) : pIC50 is 5.28

What the record says about CCCC1(C)N=C(N)N=C(N)N1c1cccc(Cl)c1 (stereo unspecified) : pIC50 is 6.54

What the record says about CCCCCCc1nc(N)nc(N)c1-c1ccccc1 : pIC50 is 5.52

What the record says about NC1=NC(c2ccc(Oc3ccccc3)cc2)N(c2ccc(Cl)cc2)C(N)=N1 (stereo unspecified) : pIC50 is 5.32

What the record says about NC1=NC(c2cccc(Oc3cc(Cl)cc(Cl)c3)c2)N(c2cccc(Cl)c2)C(N)=N1 (stereo unspecified) : pIC50 is 5.41

What the record says about NC1=NC(c2cccc(Oc3cccc(C(F)(F)F)c3)c2)N(c2cccc(Cl)c2)C(N)=N1 (stereo unspecified) : pIC50 is 5.47

What the record says about CCCCCCC1(C)N=C(N)N=C(N)N1c1ccc(Cl)cc1 (stereo unspecified) : pIC50 is 5.39

What the record says about CC1(C)N=C(N)N=C(N)N1c1ccc(Cl)cc1 : pIC50 is 4.42

What the record says about Nc1nc(N)c(-c2cccc(Cl)c2)c(CCOCCCOc2ccccc2)n1 : pIC50 is 5.54

What the record says about CCCOc1ccc(C2N=C(N)N=C(N)N2c2cccc(Cl)c2)cc1 (stereo unspecified) : pIC50 is 5.54

What the record says about NC1=NC(c2cccc(OCc3ccccc3)c2)N(c2cccc(Cl)c2)C(N)=N1 (stereo unspecified) : pIC50 is 5.12

What the record says about Nc1nc(N)c(-c2cccc(Cl)c2)c(CCCOC(=O)c2ccccc2)n1 : pIC50 is 5.72

What the record says about CCCCCCCC1N=C(N)N=C(N)N1c1cccc(Cl)c1 (stereo unspecified) : pIC50 is 6.85

Source: BindingDB's records for doi:10.1021/jm030165t
